The values you see were collected from PubChem BioAssay (NCI).

Test system: SR leukemia
Test: NCI tumour cell line growth inhibition, 48 h; in the data active = GI50 below about 0.43 µM; inactive = the rest
Please state which outcome applies, choosing from active, inactive

Sample answers from the record:
INSERT INTO measurements (compound, category) VALUES
  ('N#CN1CC[C@H](C(=O)Nc2ncc(-c3ccncc3)s2)C1', 'active'),
  ('COC(=O)c1nc(-c2ccccc2)oc1S(=O)(=O)n1nc(C)cc1N', 'inactive'),
  ('Cc1cccc(NC(=O)c2sc3nc4c(cc3c2N)CN(Cc2ccccc2)CC4)c1C', 'active'),
  ('COc1ccc2c(c1)OC1=C(C(=O)OC1)C2c1cc(OC)c2c(c1)OCO2 (stereo unspecified)', 'active'),
  ('O=[N+]([O-])c1cc(S(=O)(=O)Oc2ccccc2)ccc1Cl', 'active'),
  ('COc1cc(/C=C/[N+](=O)[O-])cc(Br)c1OC', 'inactive'),
  ('COc1ccc(C(=O)N2c3ccccc3Sc3ccccc32)c(OC)c1', 'inactive'),
  ('N#Cc1ccc(N=Cc2c([O-])ccc3ccccc23)cc1.[C-]#[O+].[C-]#[O+].[Ir]', 'inactive');

Give the logged outcome of this assay for the following compound: C[CH2][Pb]([CH2]C)([CH2]C)[O]C(=O)c1ccc2ccccc2n1
inactive

Just curious, what result did COc1ccc2cc(-c3c(-c4ccncc4)nc(-c4ccc(S(C)=O)cc4)n3C)ccc2c1 (stereo unspecified) get here?
inactive

Any idea what this test logged for CC1=CC(=O)C(O)C2(C)C1CC(O)C13COC4(C)C(OC(=O)C41)C(O)C23 (stereo unspecified) ?
inactive

Could you please tell me the result logged for CC(C)=CCC/C(C)=C/CC/C(C)=C/CC/C=C(\C)CC/C=C(\C)CCC(=O)Nc1ccn(C2OC(CO)C(O)C2(F)F)c(=O)n1 (stereo unspecified) in this assay?
active

Hello, I am checking results. What call was entered for CC(C)(C)CN1CCn2c(nc3c(N)nccc32)S1 ?
inactive

What outcome does the record of this test show for CCCCn1c(=O)c2c(nc3n2CCCN3CCc2ccc(OCC(=O)NCCN(CC)CC)cc2)n(CCCC)c1=O ?
inactive

What classification did CC(=O)Oc1ccccc1C(=O)/C=C/c1cccc([N+](=O)[O-])c1 end up with in this test?
inactive

What call does the record list for CN1CCN(CC(O)COc2c(Br)c(Br)c(Br)c3c2OC(C)(C)C3)CC1 (stereo unspecified) ?
inactive

----------
Test system: HOP-92 NSCLC
Test: NCI tumour cell line growth inhibition, 48 h
Below: a set of entries, each annotated with reported TGI.
# value in µM; strip the unit string

Solved entries (count: 3):
INSERT INTO results (compound, reported_result) VALUES
  ('C#CCOc1cccc(Nc2ncnc3c(NC(=O)CCl)cccc23)c1', 33.8),
  ('CC1OC(O[C@H]2/C=C/C=C/C=C/C=C/C=C/C=C/C=C/[C@H](C)[C@@H](O)[C@@H](C)[C@H](C)OC(=O)CC(O)CC(O)CCC(O)C(O)CC(O)C[C@]3(O)C[C@H](O)C(C(=O)O)C(C2)O3)C(O)[C@H](N)C1O (stereo partly specified)', 15.6),
  ('Cc1ccc(C2=Nc3ccccc3SC(c3cccc([N+](=O)[O-])c3)C2)cc1 (stereo unspecified)', 81.3);

Query: TGI; subject: CN1CCN(Cc2ccc(NC(=O)c3[nH]ncc3Nc3ncnc4sc5c(c34)CCCC5)cc2)CC1
4.81

----------
Tested on: TK-10 renal
Assay: NCI tumour cell line growth inhibition, 48 h
# reported TGI; entries follow

INSERT INTO assay_data (compound, recorded_endpoint, reported_result) VALUES
  ('CCN(CC)CCNCc1cc(Cl)cc2c1OCOC2', 'TGI', '> 10 µM'),
  ('Cc1cc(N(CCC#N)CCC#N)ccc1/C=C1/N=C(c2ccccc2)N(N)C1=O', 'TGI', '> 100 µM'),
  ('Cc1cccc(NC(=O)c2sc3nc4c(cc3c2N)CN(Cc2ccccc2)CC4)c1C', 'TGI', '> 50 µM'),
  ('COc1cc(C2C3=C(COC3=O)Oc3cc4c(cc32)OCO4)cc(OC)c1OC(C)=O (stereo unspecified)', 'TGI', '> 100 µM'),
  ('CCN1C(=O)N(CC)C2C1NN=c1s/c(=C\c3ccccc3Br)c(=O)n12 (stereo unspecified)', 'TGI', '> 100 µM');

Next compound, please.
For the compound Nc1ccccc1SCc1csc(-c2ccc(Cl)cc2)n1 , what TGI is on record?
> 100 µM

----------
Tested on: HOP-92 NSCLC
Assay: NCI tumour cell line growth inhibition, 48 h
Recorded Endpoint: TGI

INSERT INTO assay_data (compound, reported_result) VALUES
  ('Fc1cccc(C2SCc3nc4ccccc4n32)c1F (stereo unspecified)', '85 µM');

Could you tell me which TGI is on file for CSCCC(NC(=O)Cc1ccc(C(=O)c2ccccc2)cc1)C(=O)O (stereo unspecified) ?
> 100 µM

Entry CC(=O)Oc1ccccc1C(=O)/C=C/c1cccc([N+](=O)[O-])c1 : reported TGI = ?
22.5 µM

Entry CC(C)[C@@H]1ON1C(C)c1ccccc1 (stereo partly specified) has what TGI?
> 100 µM

Fill in the blank: the reported TGI of COc1ccc(-n2cnc3c(NC(CCSC)C(=O)O)ncnc32)cc1 (stereo unspecified) is ____.
> 100 µM

Which TGI reading was recorded for the compound COC12c3ccccc3-c3ccccc3C1[C@H]1C(=O)OC(=O)[C@H]12 (stereo partly specified) ?
> 10 µM

What value of measured TGI is listed for Cc1ccc2nc(NC(=O)/C(Cc3nc4ccc(Cl)cc4[nH]c3=O)=N\NC(C)(C)C)sc2c1 ?
> 100 µM

GET /values?readout=TGI&item= OC(c1ccc(-c2ccccc2)cc1)C(F)(F)c1nc2ccccc2o1 (stereo unspecified)
> 86.3 µM

Field request: TGI | item: CCOC(=O)C(=O)Nc1cc(Cl)ccc1Cl
> 100 µM

What measured TGI goes with CC1=NN(C(=O)CSc2nc3ccc(I)cc3c(=O)n2Cc2ccccc2)C(=O)C1 ?
70.7 µM

Need TGI, item O=C(O)CNC(=O)c1c2ccccc2nc2ccccc12
> 100 µM

----------
Test system: PC-3 prostate
Experiment: NCI tumour cell line growth inhibition, 48 h
Listing of recorded TGI by entry.

INSERT INTO measurements (compound, recorded_endpoint, reported_result) VALUES
  ('C/C1=C\[C@@H](O)C(=O)/C=C/C=C\c2csc(n2)[C@@H](C)NC(=O)C[C@@]2(CC1)S(=O)SC(=O)[C@]2(C)O (some centres not stated)', 'TGI', '0.0387 µM'),
  ('COc1cccc(NC(=O)C(C#N)=C(SC)SC)c1', 'TGI', '> 100 µM'),
  ('Cc1nc(-c2ccc(N=Cc3ccc(N(CCOS(C)(=O)=O)CCOS(C)(=O)=O)cc3C)cc2)cs1', 'TGI', '> 100 µM'),
  ('CC(C)(C)c1cc(C2COC(c3cc(C(C)(C)C)c(O)c(C(C)(C)C)c3)CO2)cc(C(C)(C)C)c1O (configuration not stated)', 'TGI', '> 100 µM'),
  ('OC(c1ccc(-c2ccccc2)cc1)C(F)(F)c1nc2ccccc2o1 (configuration not stated)', 'TGI', '> 100 µM');

Which measured TGI value corresponds to CCC1(O)C(=O)OCc2c1cc1n(c2=O)Cc2cc3cc(N)ccc3nc2-1 (configuration not stated) ?
> 100 µM

Tell me the measured TGI of CCCCCn1sc(=O)n(Cc2ccc(CNC(=O)OCc3ccc4cccc(O)c4n3)cc2)c1=O , please.
2.76 µM

----------
Test system: SK-MEL-5 melanoma
Test: NCI tumour cell line growth inhibition, 48 h; in the data active = GI50 below about 0.43 µM; inactive = the rest
Returns: one label drawn from label 1 for active, label 0 for inactive

Solved entries:
INSERT INTO assay_data (compound, category) VALUES
  ('CC(=O)c1c(C(F)(F)F)n([O-])c2ccc(C)cc2[n+]1=O', 'label 0'),
  ('CC1(C)N=C(N)N=C(N)N1c1ccc(CCCCc2ccc(S(=O)(=O)F)cc2)c(Cl)c1', 'label 1'),
  ('O=C1NC(=O)C(c2cccc(Cl)c2)=C1Nc1ccc(O)c(Cl)c1', 'label 0'),
  ('Cc1c(C2=C(c3cn(C)c4ccccc34)C(=O)NC2=O)c2ccccc2n1C', 'label 0'),
  ('COc1ccc(C(=O)N2c3ccccc3Sc3ccccc32)c(OC)c1', 'label 1'),
  ('COc1ccc(OC)c(C2SCC(=O)N2NC(=O)C(O)c2ccccc2)c1 (configuration not stated)', 'label 0'),
  ('N#CN1CC[C@H](C(=O)Nc2ncc(-c3ccncc3)s2)C1', 'label 1'),
  ('COc1ccc(/C=N/NC(=O)Cn2c(-c3ccc(S(C)(=O)=O)cc3)nc3cc(Cl)ccc32)cc1', 'label 0');

What outcome does the record of this test show for O=C(Oc1cccnc1)c1ccsc1Nc1ccnc(C(F)(F)F)c1 ?
label 0

Query: recorded result category for O=[N+]([O-])c1cc(S(=O)(=O)Oc2ccccc2)ccc1Cl in this test
label 0

Test call, this compound: Cc1cccc(NC(=O)c2sc3nc4c(cc3c2N)CN(Cc2ccccc2)CC4)c1C
label 1
